B1: library; a variant is named by its letters at N, in order (parent)
chain: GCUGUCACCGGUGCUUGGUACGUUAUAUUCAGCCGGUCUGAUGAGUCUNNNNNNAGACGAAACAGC

# Variants of: B1
# assay-summary: normalized RNA/DNA level without ligand (relative to sTRSVctl = 100) (log10 (% of sTRSVctl)); HEK293T overexpressing SLC46A1; higher = less ribozyme self-cleavage, higher mRNA level
# run-conditions: without (6R,S)-folinic acid; ligand present: no
Measured normalized RNA/DNA level without ligand (log10), listed per entry.
recorded-metric: normalized RNA/DNA level without ligand (log10)

mutation_key=GCCUCU reported=2.05
mutation_key=AUGAUC reported=2.07
mutation_key=UUUUAC reported=1.98
mutation_key=CGCGGC reported=2.11
mutation_key=UUGACU reported=2.01
mutation_key=UUUCUU reported=2.04
mutation_key=AACUUU reported=2.01
mutation_key=GCUAGG reported=1.95
mutation_key=CUGACU reported=2.03
mutation_key=ACUUAC reported=2.01
mutation_key=CUGGAC reported=1.99
